Biological target: T1, Human NOTUM (human, UniProt Q6P988 20-496)
T1 sequence: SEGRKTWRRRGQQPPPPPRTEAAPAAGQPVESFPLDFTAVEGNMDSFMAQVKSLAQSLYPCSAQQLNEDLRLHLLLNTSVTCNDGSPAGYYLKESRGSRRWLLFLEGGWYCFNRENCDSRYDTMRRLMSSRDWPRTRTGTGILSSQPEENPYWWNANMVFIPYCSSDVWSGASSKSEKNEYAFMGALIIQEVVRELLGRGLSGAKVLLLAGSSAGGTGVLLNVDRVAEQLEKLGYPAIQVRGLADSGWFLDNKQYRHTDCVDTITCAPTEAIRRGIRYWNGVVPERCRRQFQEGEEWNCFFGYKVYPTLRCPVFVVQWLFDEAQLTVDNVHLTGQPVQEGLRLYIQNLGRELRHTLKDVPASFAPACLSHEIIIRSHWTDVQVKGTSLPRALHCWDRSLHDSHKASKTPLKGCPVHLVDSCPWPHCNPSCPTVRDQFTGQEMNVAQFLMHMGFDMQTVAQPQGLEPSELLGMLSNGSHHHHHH
Test: cell-based or functional assay
ENDPOINT_LABEL: OPTS IC50 (nM; human NOTUM) (nM)
Response body: numeric value in nM, unit text excluded.

Query block: Please give the measured OPTS IC50 (nM; human NOTUM) for this binder: MAb 1.802 (antibody, V domains shown, Mouse monoclonal antibody from Campaign 1 (raised against human NOTUM), IgG1) VH: EVQLVESGGGLVKPGGSLKLSCAASGFTFSDYGMHWFRQAPEKGLEWVAYISSGSRTVYYADTVKGRFTISRDNAKNTLSLQMTSLRSEDTAMYYCARKHYNGGYFDVWGTGTTVTVSS VL: DIVLTQSPASLAVSLGQRATISCRASKIVSTSGYSYMHWYQQKPGQPPKLLIYLASNLESGVPARFSGSGSGTDFTLNIHPVEEEDAATYYCQHSRELPPTFGSGTKLEIKR
Result block: 6.44
